- target: UniProtKB P35372
- assay-procedure: cell-based
Entries whose IC50 is below 200 nM take 1; entries at or above 200 nM take -1.

compound	assigned-category
Oc1ccc2c3c1O[C@H]1[C@@H](OCCOCCOCCOCCOCCOCCO[C@H]4CC[C@@]5(O)[C@H]6Cc7ccc(O)c8c7[C@@]5(CCN6CC5CC5)[C@H]4O8)CC[C@@]4(O)[C@@H](C2)N(CC2CC2)CC[C@]314 [Nal025, PEG6-(6-α-naltrexol)2-ether]	1
COCCOCCOCCOCCOCCOCCO[C@H]1CC[C@@]2(O)[C@H]3Cc4ccc(O)c5c4[C@@]2(CCN3CC2CC2)[C@H]1O5 [Nal037, mPEG6-(6-α-naltrexol)-ether]	-1
Oc1ccc2c3c1O[C@H]1[C@@H](OCCOCCOCCOCCOCCOCCOCCOCCO[C@H]4CC[C@@]5(O)[C@H]6Cc7ccc(O)c8c7[C@@]5(CCN6CC5CC5)[C@H]4O8)CC[C@@]4(O)[C@@H](C2)N(CC2CC2)CC[C@]314 [Nal029, PEG8-(6-α-naltrexol)2-ether]	1

Consider now this further compound.
Q: Lab log: compare recorded IC50 with 200 nM; is it strictly lower for Oc1ccc2c3c1O[C@H]1[C@H](OCCOCCOCCOCCOCCOCCO[C@@H]4CC[C@@]5(O)[C@H]6Cc7ccc(O)c8c7[C@@]5(CCN6CC5CC5)[C@H]4O8)CC[C@@]4(O)[C@@H](C2)N(CC2CC2)CC[C@]314 [Nal026, PEG6-(6-β-naltrexol)2-ether] ?
Result: 1

====

- target: OPRM1 (Mμ opioid receptor gene) receptor (Homo sapiens, UniProt P35372)
- Sequence (P35372 whole entry): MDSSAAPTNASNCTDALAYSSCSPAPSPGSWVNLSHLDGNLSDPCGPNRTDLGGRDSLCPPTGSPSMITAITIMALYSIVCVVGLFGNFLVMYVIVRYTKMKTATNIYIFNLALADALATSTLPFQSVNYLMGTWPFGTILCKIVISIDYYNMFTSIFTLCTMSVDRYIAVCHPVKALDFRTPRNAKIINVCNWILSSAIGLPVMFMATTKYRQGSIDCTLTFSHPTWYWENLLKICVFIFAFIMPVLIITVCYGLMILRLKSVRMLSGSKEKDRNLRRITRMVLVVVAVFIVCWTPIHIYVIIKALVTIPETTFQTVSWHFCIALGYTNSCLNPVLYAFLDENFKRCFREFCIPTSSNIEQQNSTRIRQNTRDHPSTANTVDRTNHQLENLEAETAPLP
- assay-procedure: cell-based
- condition: OPRM1, read-out: Inhibition rate (%) of highest concentration (mean ± standard deviation) (N = 2)
Property: inhibition at 10 µM; scope: individual molecules
A number alone suffices; assume %.

Solved cases below.
molecule	inhibition at 10 µM / %
Oc1ccc2c3c1O[C@H]1[C@H](OCCOCCOCCOCCOCCOCCO[C@@H]4CC[C@@]5(O)[C@H]6Cc7ccc(O)c8c7[C@@]5(CCN6CC5CC5)[C@H]4O8)CC[C@@]4(O)[C@@H](C2)N(CC2CC2)CC[C@]314 [Nal026, PEG6-(6-β-naltrexol)2-ether]	101
Oc1ccc2c3c1O[C@H]1[C@@H](OCCOCCOCCOCCOCCOCCOCCOCCOCCOCCO[C@H]4CC[C@@]5(O)[C@H]6Cc7ccc(O)c8c7[C@@]5(CCN6CC5CC5)[C@H]4O8)CC[C@@]4(O)[C@@H](C2)N(CC2CC2)CC[C@]314 [Nal033, PEG10-(6-α-naltrexol)2-ether]	99.1
Oc1ccc2c3c1O[C@H]1[C@@H](OCCOCCOCCOCCOCCOCCOCCOCCO[C@H]4CC[C@@]5(O)[C@H]6Cc7ccc(O)c8c7[C@@]5(CCN6CC5CC5)[C@H]4O8)CC[C@@]4(O)[C@@H](C2)N(CC2CC2)CC[C@]314 [Nal029, PEG8-(6-α-naltrexol)2-ether]	98

Q: Form field: reported inhibition at 10 µM of Oc1ccc2c3c1O[C@H]1[C@@H](OCCOCCOCCO[C@H]4CC[C@@]5(O)[C@H]6Cc7ccc(O)c8c7[C@@]5(CCN6CC5CC5)[C@H]4O8)CC[C@@]4(O)[C@@H](C2)N(CC2CC2)CC[C@]314 [Nal053, PEG3-(6-α-naltrexol)2-ether]
Result: 102

Q: Form field: reported inhibition at 10 µM of COCCOCCOCCOCCOCCOCCO[C@H]1CC[C@@]2(O)[C@H]3Cc4ccc(O)c5c4[C@@]2(CCN3CC2CC2)[C@H]1O5 [Nal037, mPEG6-(6-α-naltrexol)-ether]
Result: 101
